// provenance: patent US8513232B2

Readings of pKi for the listed compounds
# experimental.system: rat histamine H3 receptor (Rattus norvegicus)
# Construct: encoding the entire 445-amino-acid rat histamine H3 receptor; expressed in transfected cells; membrane preparation
# method.summary: Rat H3 radioligand binding ([3H]-N-alpha-methylhistamine, SPA)
# assay.context: rat H3 binding, Table D; read-out: Rat H3 Ki
pKi: −log10 of the molar value.

Here CCSc1c[nH]c(=O)cc1-c1ccc2c(c1)COC1(CCN(C3CCC3)CC1)O2 was tested on rat histamine H3 receptor (Rattus norvegicus), and its pKi came to > 6.70

Here COCC1CCN(c2ccc3c(c2)COC2(CCN(C4CCC4)CC2)O3)CC1 was tested on rat histamine H3 receptor (Rattus norvegicus), and its pKi came to > 6.70

Here CC(C)(C)OC(=O)n1cccc1-c1ccc2c(c1)COC1(CCN(C3CCC3)CC1)O2 was tested on rat histamine H3 receptor (Rattus norvegicus), and its pKi came to > 6.70

Here Cc1cc(=O)n(C)cc1-c1ccc2c(c1)COC1(CCN(C3CCC3)CC1)O2 was tested on rat histamine H3 receptor (Rattus norvegicus), and its pKi came to > 6.70

* * *

# experimental.system: rat histamine H3 receptor (Rattus norvegicus, UniProt Q9QYN8)
# Construct: encoding the entire 445-amino-acid rat histamine H3 receptor; expressed in transfected cells; membrane preparation
# Sequence (Q9QYN8 whole entry): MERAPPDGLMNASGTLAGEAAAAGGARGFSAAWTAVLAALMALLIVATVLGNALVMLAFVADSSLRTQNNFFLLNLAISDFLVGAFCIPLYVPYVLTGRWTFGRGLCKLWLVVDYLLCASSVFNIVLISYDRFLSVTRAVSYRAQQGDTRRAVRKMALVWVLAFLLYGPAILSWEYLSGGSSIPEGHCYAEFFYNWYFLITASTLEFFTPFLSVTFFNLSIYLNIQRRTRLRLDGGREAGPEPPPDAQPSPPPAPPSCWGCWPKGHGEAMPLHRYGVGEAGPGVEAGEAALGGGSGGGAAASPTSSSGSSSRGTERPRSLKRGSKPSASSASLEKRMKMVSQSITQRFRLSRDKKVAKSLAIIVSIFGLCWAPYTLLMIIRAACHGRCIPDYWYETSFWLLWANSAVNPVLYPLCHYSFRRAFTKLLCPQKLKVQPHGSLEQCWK
# method.summary: Rat H3 radioligand binding ([3H]-N-alpha-methylhistamine, SPA)
pKi: −log10 of the molar value.
Readings of pKi for the listed compounds

{"chemical.smiles": "O=C1CCN(C(=O)c2ccc(-c3ccc4c(c3)CCC3(CCN(C5CCC5)CC3)O4)cc2)CC1", "pKi": "> 6.70"}
{"chemical.smiles": "O=C(Nc1ccc2c(c1)CCC1(CCN(C3CCC3)CC1)O2)c1cnnc2ccccc12", "pKi": "> 6.70"}

Turning to the following compound.
Reported pKi of CC(C)S(=O)(=O)N1CCC(Oc2ccc3c(c2)CCC2(CCN(C4CCC4)CC2)O3)CC1 : > 6.70

* * *

Readings of melting point for the listed molecules

Please review the entries below; each comes with its answer.
{"molecule": "c1ccc(COc2ccc(-c3ccc4c(c3)CCC3(CCN(C5CCC5)CC3)O4)cn2)cc1", "measured.attribute": "melting point", "assay.value": "115 to 117 °C"}
{"molecule": "CNC(=O)c1ccc(-c2cc3c(cc2Cl)OC2(CCN(C4CCC4)CC2)OC3)cc1F", "measured.attribute": "melting point", "assay.value": "70 to 72 °C"}
{"molecule": "Cn1cc2c(n1)CCC(c1ccc3c(c1)COC1(CCN(C4CCC4)CC1)O3)C2 (stereo not shown)", "measured.attribute": "melting point", "assay.value": "138 to 140 °C"}

Turning to the following molecule.
Reported melting point of N#Cc1cccc(C(=O)Nc2ccc3c(c2)COC2(CCN(C4CCC4)CC2)O3)c1 : 212 to 215 °C

* * *

# experimental.system: rat histamine H3 receptor (Rattus norvegicus, UniProt Q9QYN8)
# Construct: encoding the entire 445-amino-acid rat histamine H3 receptor; expressed in transfected cells; membrane preparation
# method.summary: Rat H3 radioligand binding ([3H]-N-alpha-methylhistamine, SPA)
# assay.context: rat H3 binding, Table D; read-out: Rat H3 Ki
# Experimental: Cell line development and membrane preparation. […] Radioligand Binding. […] Non-specific binding was determined in the presence of 10 μM clobenpropit. Radioligand bound to receptor, and therefore in proximity to the scintillation beads, was measured using a MicroBeta scintillation counter.
Readings of Ki for the listed molecules

Please review the entries below; each comes with its answer.
{"molecule": "CCC(=O)N1CCN(c2ccc3c(c2)COC2(CCN(C4CCC4)CC2)O3)C(=O)C1 [Example 739]", "experimental.system": "rat histamine H3 receptor (Rattus norvegicus, UniProt Q9QYN8)", "measured.attribute": "Ki", "assay.value": "< 0.2 µM"}
{"molecule": "O=c1[nH]cc(-c2ccc3c(c2)COC2(CCN(C4CCC4)CC2)O3)cc1Cl [Example 658]", "experimental.system": "rat histamine H3 receptor (Rattus norvegicus, UniProt Q9QYN8)", "measured.attribute": "Ki", "assay.value": "< 0.2 µM"}
{"molecule": "COc1cc(C)c(-c2ccc3c(c2)CCC2(CCN(C4CCC4)CC2)O3)cn1 [Example 769]", "experimental.system": "rat histamine H3 receptor (Rattus norvegicus, UniProt Q9QYN8)", "measured.attribute": "Ki", "assay.value": "< 0.2 µM"}

Turning to the following molecule.
Reported Ki of CN(C)C(=O)N1CCC(COc2ccc3c(c2)CCC2(CCN(C4CCC4)CC2)O3)CC1 [Example 576] : < 0.2 µM
